Target: T1, APG293 (human CD95L-T4) (human)
T1 chain: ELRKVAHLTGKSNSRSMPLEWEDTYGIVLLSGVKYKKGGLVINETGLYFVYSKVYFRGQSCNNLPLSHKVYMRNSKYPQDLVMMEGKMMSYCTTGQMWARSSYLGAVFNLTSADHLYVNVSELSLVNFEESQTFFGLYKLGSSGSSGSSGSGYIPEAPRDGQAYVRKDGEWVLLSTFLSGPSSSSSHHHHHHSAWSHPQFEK
Test: cell-based or functional assay
experimental_readout: EC50, Assay 3: antagonism of CD95L-T4-induced apoptosis on Jurkat A3 cells (mg/L)
The figure you give is taken to be in mg/L; do not add the unit.

query: Bench note: what EC50, Assay 3: antagonism of CD95L-T4-induced apoptosis on Jurkat A3 cells did scFv-minibody SEQ ID 51 (scFv) scFv: EVQLVESGGGLVQPGGSLRLSCAASGFSFSDHYWMSWVRQAPGKGLEWVSAIYTADSDSYYADSVKGRFTISKDSSKNTLYLQMNSLRAEDTAVYYCARNGAYAGGPYGDLWGQGTLVTVSGGGSGGGSGGGSGGGSDIQMTQSPSSLSASVGDRVTITCKASQSIRTSLVWYQQKPGKAPKLLIYKASDLPSGVPSRFSGSGSGTDFTLTISSLQPEDFATYYCQSYDFRDTINNGHSFGQGTKVEIKGSGSSGQPREPQVYTLPPSREEMTKNQVSLTCLVKGFYPSDIAVEWESQGSPENNYKTTPPVLDSDGSFFLYSKLTVDKSRWQQGNVFSCSVMHEALHNHYTQKSLSLSPGSSSSSSAWSHPQFEK show?
result: 1.55
